B1: Zinc finger homeobox protein 4, residues 2183 to 2238; numbered along this chain, Q86UP3 (parent)
chain: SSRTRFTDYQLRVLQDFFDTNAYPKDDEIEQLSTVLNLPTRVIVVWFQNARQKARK

Variants of: B1
Assay: abundance fitness (aPCA) (normalised: wild type 0, dead -1); higher = more abundant; growth selection in yeast, the domain comes from the species named
Details: Homo sapiens
MEASUREMENT TYPE: abundance fitness
Give only the figure.

Known abundance fitness results, listed for orientation:
* T34A | -0.049
* R3I | 0.489
* S2Q | 0.262

--- query ---
[in] Which abundance fitness is listed for D26T ?
[out] -0.071
